B1: mRNA-splicing (parent)
chain: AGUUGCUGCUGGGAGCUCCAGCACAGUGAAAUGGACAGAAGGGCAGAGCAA

- Variants of: B1
- protocolText: exon inclusion enrichment index; higher = more inclusion; WT1 exon 5 minigene, HEK293
# exon inclusion enrichment index >= 0.5 gives YES, anything below gives NO

variantName	assignedLabel
G5A C6U U7A	NO
A40U G41U	NO
G5A C6G U7G C9A A40C	NO
G5A C6G U7G C9A A35G	NO
C6A U7C C9A U10C G41U G42U	YES
G5A C6G U7G C9G	NO
G5A C6U U7A G8U C9A A25C G26A	NO
G5A C6U U7A G8U C9A C36G A37C	NO
G5A U7C G8A U10C A37U G38C	YES
G5A U7C G8A U10C G41C G42U	YES
G5A U7C G8A U10C A45C	YES
G5A C6U U7A G8U C9A G34A A35G	NO
G5C C6G U7C U10C C22G	YES
C6A U7C C9A U10C C18G C19G	YES
G5A C6U U7A G8U C9A G34U A35G	NO
G5A C6U U7A G8U C9A G12A G13U	NO
G5C C6G U7C U10C A25U G26C	YES
G5C C6U G8U C9U U10C	YES
C6A U7A C9A U10A A47U	YES
G5C C6G U7C U10C A30U	YES
G5A C6G U7G C9A C19G	NO
G5A U7C G8A U10C C18G C19U	YES
